# credit: paper PMC10786919

Each item that follows carries a reported EC50.
# Tested on: Jump-In T-REx CHO-K1 BLA cells
# assay-text: cells
# Assay type: cell-based
# test-parameters: 0% FBS 4Hr; read-out: TETCHO: Counterscreen EC50
# Description: This assay was based on Jump-In™ T-REx™ CHO-K1 BLA cells containing a stably integrated β-lactamase under the control of an inducible cytomegalovirus (CMV) promoter. […] The final working concentration of DMSO was 0.5%. β-lactamase activity was detected using the ToxBLAzer Dual Screen (Invitrogen), as per the manufacturer’s instructions. Measurements were carried out using the Envision multiplate reader (Perkin–Elmer). […]
endpoint-label: EC50 (µM)

compound: CC(=O)N[C@H](C(=O)N[C@@H](CO)C(=O)N[C@@H](Cc1ccccc1)C(=O)N[C@]1(C)CCCCCCC=CCCC[C@@](C)(C(=O)NCCCCCC(=O)N[C@@H](CCCCN)C(N)=O)NC(=O)[C@H](CC(C)C)NC(=O)[C@H](CC(C)C)NC(=O)[C@H](C)NC(=O)[C@H](Cc2c[nH]c3ccccc23)NC(=O)[C@H](Cc2ccc(O)cc2)NC(=O)[C@H](CCC(=O)O)NC1=O)[C@@H](C)O
endpoint-label: EC50
output-unit: µM
sign-qualifier: >
numeric-readout: 50
//
compound: CC(=O)N[C@@H](CCCCN=[N+]=[N-])C(=O)NCCC(=O)N[C@@H](CC(C)C)C(=O)N[C@H](C(=O)N[C@@H](Cc1ccccc1)C(=O)N[C@]1(C)CCCCCCC=CCCC[C@@](C)(C(=O)N[C@@H](CO)C(=O)N[C@@H](C)C(=O)N[C@@H](C)C(N)=O)NC(=O)[C@H](CC2CCC2)NC(=O)[C@H](CCC(N)=O)NC(=O)[C@H](Cc2c[nH]cn2)NC(=O)[C@H](Cc2c[nH]c3ccccc23)NC(=O)[C@H](Cc2ccc(O)cc2)NC(=O)[C@H](CCC(=O)O)NC1=O)[C@@H](C)O [MP-496, AZIDE-ATSP-7041 (A8H)]
endpoint-label: EC50
output-unit: µM
sign-qualifier: =
numeric-readout: 2.83
//
compound: CC(=O)N[C@H](C(=O)N[C@@H](CO)C(=O)N[C@@H](Cc1ccccc1)C(=O)NC(C)(C)C(=O)N[C@@H](CCC(=O)O)C(=O)N[C@@H](Cc1ccc(O)cc1)C(=O)N[C@@H](Cc1c[nH]c2ccccc12)C(=O)N[C@@H](C)C(=O)N[C@@H](CC(C)C)C(=O)N[C@@H](CC(C)C)C(=O)NC(C)(C)C(=O)N[C@@H](CCC(=O)O)C(N)=O)[C@@H](C)O
endpoint-label: EC50
output-unit: µM
sign-qualifier: >
numeric-readout: 50
//
compound: CC(=O)N[C@@H](CCCCN)C(=O)NCCCCCC(=O)N[C@H](C(=O)N[C@@H](CO)C(=O)N[C@@H](Cc1ccccc1)C(=O)N[C@]1(C)CCCCCCC=CCCC[C@@](C)(C(=O)N[C@@H](CCC(=O)O)C(=O)N[C@@H](CC(N)=O)C(=O)N[C@@H](Cc2ccccc2)C(N)=O)NC(=O)[C@H](CC(C)C)NC(=O)[C@H](CC(C)C)NC(=O)[C@H](C)NC(=O)[C@H](Cc2c[nH]c3ccccc23)NC(=O)[C@H](Cc2ccc(O)cc2)NC(=O)[C@H](CCC(=O)O)NC1=O)[C@@H](C)O [MP-6210]
endpoint-label: EC50
output-unit: µM
sign-qualifier: =
numeric-readout: 44
//
compound: CC(=O)N[C@@H](CCCCN)C(=O)NCCCCCC(=O)N[C@H](C(=O)N[C@@H](CO)C(=O)N[C@@H](Cc1ccccc1)C(=O)N[C@]1(C)CCCCCCC=CCCC[C@@](C)(C(=O)N[C@@H](CCC(=O)O)C(=O)N[C@@H](CC(N)=O)C(=O)N[C@@H](Cc2ccccc2)C(N)=O)NC(=O)[C@H](CC(C)C)NC(=O)[C@H](CC(C)C)NC(=O)[C@H](C)NC(=O)[C@H](Cc2c[nH]c3ccccc23)NC(=O)[C@H](Cc2ccc(O)cc2)NC(=O)[C@H](CCC(=O)O)NC1=O)[C@@H](C)O [MP-5365]
endpoint-label: EC50
output-unit: µM
sign-qualifier: >
numeric-readout: 50

###

Consider the following compounds and their measured EPSA readings.
# assay-text: physchem
Positions of bridges follow the written chain, without caps; N, C: chain ends. Non-standard residues stand in square brackets, D forms with d. Residues, ends and D or L forms follow the SMILES beside them. Lys(N3) = [N-]=[N+]=NCCCC[C@H](N)C(=O)O; R8 = C=CCCCCCC[C@@](C)(N)C(=O)O; Cba = N[C@@H](CC1CCC1)C(=O)O; S5 = C=CCCC[C@](C)(N)C(=O)O; βAla = NCCC(=O)O
endpoint-label: EPSA (A^2)

compound: CC(=O)N[C@@H](CC(C)C)C(=O)N[C@H](C(=O)N[C@@H](Cc1ccccc1)C(=O)N[C@]1(C)CCCCCCC=CCCC[C@@](C)(C(=O)N[C@@H](CO)C(=O)N[C@@H](C)C(=O)N[C@@H](C)C(N)=O)NC(=O)[C@H](CC2CCC2)NC(=O)[C@H](CC(C)C)NC(=O)[C@H](CCC(N)=O)NC(=O)[C@H](C)NC(=O)[C@H](Cc2ccc(O)cc2)NC(=O)[C@H](CCC(=O)O)NC1=O)[C@@H](C)O [MP-364] (Ac-LTF[R8]EYAQL[Cba][S5]SAA-NH2; staple 4-11)
output-unit: A^2
numeric-readout: 196

compound: CC(=O)N[C@@H](CCCCN=[N+]=[N-])C(=O)NCCC(=O)N[C@@H](CC(N)=O)C(=O)N[C@H](C(=O)N[C@@H](Cc1ccccc1)C(=O)N[C@]1(C)CCCCCCC=CCCC[C@@](C)(C(=O)N[C@@H](CO)C(=O)N[C@@H](C)C(=O)N[C@@H](C)C(N)=O)NC(=O)[C@H](CC2CCC2)NC(=O)[C@H](CCC(N)=O)NC(=O)[C@H](CC(N)=O)NC(=O)[C@H](Cc2c[nH]c3ccccc23)NC(=O)[C@H](Cc2ccc(O)cc2)NC(=O)[C@H](CC(N)=O)NC1=O)[C@@H](C)O
output-unit: A^2
numeric-readout: 202

compound: CC(C)C[C@H](NC(=O)CCNC(=O)[C@@H](N)CCCCN=[N+]=[N-])C(=O)N[C@H](C(=O)N[C@@H](Cc1ccccc1)C(=O)N[C@]1(C)CCCCCCC=CCCC[C@@](C)(C(N)=O)NC(=O)[C@H](CC(C)C)NC(=O)[C@H](CC(C)C)NC(=O)[C@H](C)NC(=O)[C@H](Cc2c[nH]c3ccccc23)NC(=O)[C@H](Cc2ccc(O)cc2)NC(=O)[C@H](CCC(=O)O)NC1=O)[C@@H](C)O [MP-0176] (H-[Lys(N3)][βAla]LTF[R8]EYWALL[S5]-NH2; staple 6-13)
output-unit: A^2
numeric-readout: 212

compound: CC(=O)N[C@@H](CCCCN=[N+]=[N-])C(=O)NCCC(=O)N[C@@H](CC(C)C)C(=O)N[C@H](C(=O)N[C@@H](Cc1ccccc1)C(=O)N[C@]1(C)CCCCCCC=CCCC[C@@](C)(C(=O)N[C@@H](CO)C(=O)N[C@@H](C)C(=O)N[C@@H](C)C(N)=O)NC(=O)[C@H](CC2CCC2)NC(=O)[C@H](CCC(N)=O)NC(=O)[C@H](C)NC(=O)[C@H](Cc2c[nH]c3ccccc23)NC(=O)[C@@H](CCC(=O)O)NC(=O)[C@H](C)NC1=O)[C@@H](C)O [MP-036] (Ac-[Lys(N3)][βAla]LTF[R8]A[dE]WAQ[Cba][S5]SAA-NH2; staple 6-13)
output-unit: A^2
numeric-readout: 188

###

This listing pairs molecules with measured EPSA.
# assay-text: physchem
Positions of bridges follow the written chain, without caps; N, C: chain ends. Non-standard residues stand in square brackets, D forms with d. Residues, ends and D or L forms follow the SMILES beside them. R8 = C=CCCCCCC[C@@](C)(N)C(=O)O; Cba = N[C@@H](CC1CCC1)C(=O)O; S5 = C=CCCC[C@](C)(N)C(=O)O

molecule: CC(=O)N[C@@H](CC(C)C)C(=O)N[C@@H](Cc1c[nH]cn1)C(=O)N[C@@H](Cc1ccccc1)C(=O)N[C@]1(C)CCCCCCC=CCCC[C@@](C)(C(=O)N[C@@H](CO)C(=O)N[C@@H](C)C(=O)N[C@@H](C)C(N)=O)NC(=O)[C@H](CC2CCC2)NC(=O)[C@H](CC(C)C)NC(=O)[C@H](CCC(N)=O)NC(=O)[C@H](Cc2c[nH]c3ccccc23)NC(=O)[C@H](Cc2ccc(O)cc2)NC(=O)[C@H](CCC(=O)O)NC1=O [MP-198, ATSP-7041 (T2H)] (Ac-LHF[R8]EYWQL[Cba][S5]SAA-NH2; staple 4-11)
output-unit: A^2
EPSA: 209
//
molecule: CC(=O)N[C@@H](CC(C)C)C(=O)N[C@H](C(=O)N[C@@H](Cc1ccccc1)C(=O)N[C@]1(C)CCCCCCC=CCCC[C@@](C)(C(=O)N[C@@H](CO)C(=O)N[C@@H](C)C(=O)N[C@@H](C)C(N)=O)NC(=O)[C@H](CC2CCC2)NC(=O)[C@H](CCCNC(=N)N)NC(=O)[C@H](CCC(N)=O)NC(=O)[C@H](Cc2c[nH]c3ccccc23)NC(=O)[C@H](Cc2ccc(O)cc2)NC(=O)[C@H](CCC(=O)O)NC1=O)[C@@H](C)O [MP-195] (Ac-LTF[R8]EYWQR[Cba][S5]SAA-NH2; staple 4-11)
output-unit: A^2
EPSA: 216
